target: UniProt P35414; assay: potency against CXCR6 with APJ panel – cell-based, beta-arrestin, DiscoveRx, uHTS hits, dose response (AID 624129); settings: CXCR6 beta-arrestin (DiscoveRx) antagonist cell assay, APJ, dose range 1
The source made the active and inactive calls. No rule for the calls is given here.
Log the outcome using a class from t (active), f (inactive)

For orientation, consider the following solved cases.
Cn1nc([N+](=O)[O-])nc1Sc1cccc2cccnc12	t
CN(C)S(=O)(=O)c1cccc(NC(=O)CSc2cccc3cccnc23)c1	t
O=[N+]([O-])c1c(NCCCO)cc(Sc2ccc(Cl)cc2)c2nonc12	f
O=C1C=CC(=O)N1Cc1ccccc1	t
O=C1C=CC(=O)N1c1ccc(-c2nc3ccccc3o2)cc1	t
CS(=O)(=O)c1ccc(C(=O)OCc2nnc(-c3ccccc3)o2)cc1[N+](=O)[O-]	t
N#CC(C#N)=C1C=CC=CN1/C(=C\c1ccccc1Cl)C(=O)c1ccccc1	t
O=C(Nc1nc2c(F)cc(F)cc2s1)c1ccccn1	t

Assay result, entry `O=C1C=CC2(O[C@H](c3ccccc3)[C@@H](c3ccccc3)O2)[C@H](Sc2ccccc2O)C1` — outcome?
t

====

Assignment: determine reported log10 of IC50 for the given compounds.
target: C-X-C chemokine receptor type 6 (Homo sapiens); assay: potency against CXCR6 with APJ panel – cell-based, beta-arrestin, DiscoveRx, uHTS hits, dose response (AID 624129); conditions: CXCR6 beta-arrestin (DiscoveRx) antagonist cell assay, CXCR6, run 2, dose range 1
Would you kindly interpret these values as log10 of IC50 expressed in µM?

Reference set (3 entries):
CC(=O)/C(=N\Nc1ccc(Cl)cc1Cl)Sc1cccc2cccnc12	0.74
C=C1CC(COc2cc(=O)oc3ccccc23)(c2ccccc2)OC1=O (configuration not stated)	0.90
C/C(=N\NC(=O)c1ccc(F)cc1)c1ccccn1	0.14

Provide log10 of IC50 values for the following items, in order.
1. COc1ccc(/C=C/c2ccc3cccc(O)c3n2)c(OC)c1OC
2. Cc1ccc(OCCn2c(NC(=O)c3ccco3)nc3ccccc32)cc1
3. O=[N+]([O-])c1c(Nc2cccc(O)c2)cc(Cl)c2nonc12
4. C=C1C(=O)[C@]23C[C@H]1CCC2[C@@]1(C)C(C[C@@H]3O)[C@](C)(C(=O)OC)CC[C@@H]1OC(C)=O (some centres not stated)
5. CCCOc1cccc(-c2cc(C(=O)N/N=C/c3ccccn3)c3ccccc3n2)c1

[0.71, 0.85, 1.05, 0.73, 1.16]

====

target: Beta-galactosidase (Escherichia coli); experiment: potency against CXCR6 with APJ panel – cell-based, beta-arrestin, DiscoveRx, uHTS hits, dose response (AID 624129); conditions: CXCR6 beta-arrestin (DiscoveRx) antagonist cell assay, b-galactosidase, dose range 1
Activity calls are given as the source filed them. How the calls were made is not given here.
# valid calls are TRUE (active), FALSE (inactive); nothing else

Could you kindly confirm the outcome this assay logged for `Oc1cccc2ccc(/C=C/c3c(F)cccc3Cl)nc12` ?
FALSE

Try the compound `C/C(=N\NC(=O)COc1ccccc1-c1ccccc1)c1ccccn1`
FALSE

Next record, please: `N#Cc1c(C#N)c(SSc2c(C#N)c(C#N)c(N)n2-c2ccccc2)n(-c2ccccc2)c1N`
FALSE

====

biological target: C-C chemokine receptor type 6 (Homo sapiens) (UniProt P51684); assay: potency against CXCR6 with APJ panel – cell-based, beta-arrestin, DiscoveRx, uHTS hits, dose response (AID 624129); conditions: CXCR6 beta-arrestin (DiscoveRx) antagonist cell assay, CCR6, run 2, dose range 1
pIC50: −log10 of the molar value.
Label rule, in plain words: pIC50 of 5 and up is condition met, under 5 is condition not met.

Example entries begin here.
Cc1cccc(C)c1NC(=O)c1nc(S(=O)(=O)Cc2ccccc2)ncc1Cl	condition not met
CC(=O)OCCCNc1cc(Sc2ccc(C)cc2)c2nonc2c1[N+](=O)[O-]	condition not met
C/C(=N\NC(=O)c1ccc(F)cc1)c1ccccn1	condition met
Cc1cccc(CSc2cccc3cccnc23)c1	condition met
CNc1cc(Cl)c2nonc2c1[N+](=O)[O-]	condition met

Given `O=C(Nc1nnc(-c2cccs2)o1)c1cccc(C(F)(F)F)c1` , state whether its pIC50 is at least 5.
condition not met

Next molecule up: `CCCCCCCCn1sccc1=O`
condition met

Same lookup for `O=c1cc(CSc2ccc(Cl)cc2)nc(-c2ccccn2)[nH]1` , please.
condition met

Again, but for `Oc1cccc2ccc(/C=C/c3c(F)cccc3Cl)nc12`
condition met
